tested_target: Histone deacetylase 8 (Homo sapiens, UniProt Q9BY41)
Sequence (Q9BY41 whole entry): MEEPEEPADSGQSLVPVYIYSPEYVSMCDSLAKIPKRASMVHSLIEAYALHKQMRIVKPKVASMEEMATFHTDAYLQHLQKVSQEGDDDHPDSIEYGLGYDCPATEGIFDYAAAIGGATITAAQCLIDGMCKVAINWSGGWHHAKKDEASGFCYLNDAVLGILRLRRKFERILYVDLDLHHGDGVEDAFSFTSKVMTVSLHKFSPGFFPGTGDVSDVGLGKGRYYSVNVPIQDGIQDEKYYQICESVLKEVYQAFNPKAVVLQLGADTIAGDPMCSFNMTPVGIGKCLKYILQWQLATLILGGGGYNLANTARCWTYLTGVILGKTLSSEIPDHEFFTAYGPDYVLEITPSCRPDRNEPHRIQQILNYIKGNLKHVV
observation_type: IC50 (nM)

[
  {
    "compound": "Cc1[nH]c2ccccc2c1C1=CCC(NCc2ccc(OCC(=O)NO)cc2F)CC1 (configuration not stated)",
    "observation_type": "IC50",
    "measured_number": 86
  },
  {
    "compound": "O=C(COc1ccc(CNCCc2c[nH]c3ccccc23)c(F)c1)NO",
    "observation_type": "IC50",
    "measured_number": 90
  }
]
